target: TYRO3 (human) (UniProt Q06418); assay: radiometric filter-binding kinase assay, Kinase HotSpot; conditions: compound 0.5 µM; ATP 10 µM
Sequence (Q06418 whole entry, looked up): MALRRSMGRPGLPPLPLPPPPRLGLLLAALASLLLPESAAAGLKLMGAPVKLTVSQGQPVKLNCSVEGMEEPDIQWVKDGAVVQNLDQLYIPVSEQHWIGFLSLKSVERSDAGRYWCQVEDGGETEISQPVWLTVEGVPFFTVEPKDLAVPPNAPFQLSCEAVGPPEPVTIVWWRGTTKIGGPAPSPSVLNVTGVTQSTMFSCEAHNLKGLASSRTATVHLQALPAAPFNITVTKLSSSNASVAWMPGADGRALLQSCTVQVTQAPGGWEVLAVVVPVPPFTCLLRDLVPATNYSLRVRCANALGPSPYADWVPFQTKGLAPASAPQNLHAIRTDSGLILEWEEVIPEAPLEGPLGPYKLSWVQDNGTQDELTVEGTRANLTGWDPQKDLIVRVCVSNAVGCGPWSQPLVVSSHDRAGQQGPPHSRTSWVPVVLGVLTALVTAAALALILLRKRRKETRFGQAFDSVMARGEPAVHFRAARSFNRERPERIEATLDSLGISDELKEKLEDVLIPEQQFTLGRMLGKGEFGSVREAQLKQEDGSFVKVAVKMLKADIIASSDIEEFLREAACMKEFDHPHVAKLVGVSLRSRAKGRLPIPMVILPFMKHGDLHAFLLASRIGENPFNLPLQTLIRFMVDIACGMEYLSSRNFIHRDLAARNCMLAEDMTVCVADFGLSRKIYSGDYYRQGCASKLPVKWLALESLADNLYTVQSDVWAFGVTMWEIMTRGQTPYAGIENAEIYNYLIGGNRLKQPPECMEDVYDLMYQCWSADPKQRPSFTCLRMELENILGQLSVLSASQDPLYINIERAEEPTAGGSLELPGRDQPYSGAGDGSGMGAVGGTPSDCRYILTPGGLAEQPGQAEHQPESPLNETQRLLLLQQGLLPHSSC
Each entry below carries its reported residual activity.
Metric: residual activity (%)

- O=C1NC(=O)C(c2cn(CCCn3ccnc3)c3ccccc23)=C1Nc1ccccc1: 99.6
- O=C(Nc1cccc(Nc2nccc(Nc3cccc(C(F)(F)F)c3)n2)c1)C1CC1: 93.8
- CO[C@H]1CC2CC[C@@H](C)[C@@](O)(O2)C(=O)C(=O)N2CCCC[C@H]2C(=O)OC([C@H](C)C[C@@H]2CC[C@@H](O)[C@H](OC)C2)CC(=O)[C@H](C)/C=C(\C)[C@@H](O)[C@@H](OC)C(=O)[C@H](C)C[C@H](C)/C=C/C=C/C=C/1C (stereo partly specified): 98.5
- CC[n+]1c(/C=C/N(C)c2ccccc2)n(-c2ccccc2)c2ccc(-c3nc4ccccc4s3)cc21: 103
- c1ccc(-c2n[nH]cc2-c2ccnc3ccccc23)nc1: 124
- CCN(CC)C(=O)c1ccc(Nc2nc(OCC3CCCCC3)c3nc[nH]c3n2)cc1: 90.4
- CCC(=O)Nc1ccc2ncnc(Nc3cccc(Br)c3)c2c1: 101
- COc1ccc(COc2ccc(Cc3cnc(N)nc3N)cc2OC)cc1: 110
- CCCC(=O)Oc1ccc2[nH]c(C(=O)c3cc4ccccc4[nH]3)cc2c1: 101
- Nc1ncnc2[nH]nc(Nc3ccc(F)cc3)c12: 100
- Nc1ccc2ncnc(NCCc3ccc(Oc4ccccc4)cc3)c2c1: 101
- CNc1cc2c(Nc3cccc(Br)c3)ncnc2cn1: 98.8
- O=C1Nc2ccc(Cl)cc2/C1=C/c1cc(Cl)c(O)c(Cl)c1: 94.9
- Cc1ccc(S(=O)(=O)/C=C/C#N)cc1: 99.8
- CNC(=O)c1cc(Oc2ccc(NC(=O)Nc3ccc(Cl)c(C(F)(F)F)c3)cc2)ccn1: 91.7
- Nc1cccc(-c2cc3c(Oc4cccc(O)c4)ncnc3[nH]2)c1: 52.1
- O=C1NC(=O)/C(=C/c2ccc3c(c2)OC(F)(F)O3)S1: 99.6
- COc1cc2ncnc(Nc3cccc(Cl)c3)c2cc1OC: 96.7
- Cc1ccc(Nc2nccc(N(C)c3ccc4c(C)n(C)nc4c3)n2)cc1S(N)(=O)=O: 92
- COc1ccc2c(c[n+](C)c3c4cc5c(cc4ccc23)OCO5)c1OC: 95.7
- c1ccc(-c2n[nH]c3c2oc2ccccc23)cc1: 87.6

* * *

Reported residual activity values follow for various compounds
biological target: PRKD2 (human) (UniProt Q9BZL6); experiment: radiometric filter-binding kinase assay, Kinase HotSpot; details: compound 0.5 µM; ATP 10 µM
Sequence (Q9BZL6 whole entry, looked up): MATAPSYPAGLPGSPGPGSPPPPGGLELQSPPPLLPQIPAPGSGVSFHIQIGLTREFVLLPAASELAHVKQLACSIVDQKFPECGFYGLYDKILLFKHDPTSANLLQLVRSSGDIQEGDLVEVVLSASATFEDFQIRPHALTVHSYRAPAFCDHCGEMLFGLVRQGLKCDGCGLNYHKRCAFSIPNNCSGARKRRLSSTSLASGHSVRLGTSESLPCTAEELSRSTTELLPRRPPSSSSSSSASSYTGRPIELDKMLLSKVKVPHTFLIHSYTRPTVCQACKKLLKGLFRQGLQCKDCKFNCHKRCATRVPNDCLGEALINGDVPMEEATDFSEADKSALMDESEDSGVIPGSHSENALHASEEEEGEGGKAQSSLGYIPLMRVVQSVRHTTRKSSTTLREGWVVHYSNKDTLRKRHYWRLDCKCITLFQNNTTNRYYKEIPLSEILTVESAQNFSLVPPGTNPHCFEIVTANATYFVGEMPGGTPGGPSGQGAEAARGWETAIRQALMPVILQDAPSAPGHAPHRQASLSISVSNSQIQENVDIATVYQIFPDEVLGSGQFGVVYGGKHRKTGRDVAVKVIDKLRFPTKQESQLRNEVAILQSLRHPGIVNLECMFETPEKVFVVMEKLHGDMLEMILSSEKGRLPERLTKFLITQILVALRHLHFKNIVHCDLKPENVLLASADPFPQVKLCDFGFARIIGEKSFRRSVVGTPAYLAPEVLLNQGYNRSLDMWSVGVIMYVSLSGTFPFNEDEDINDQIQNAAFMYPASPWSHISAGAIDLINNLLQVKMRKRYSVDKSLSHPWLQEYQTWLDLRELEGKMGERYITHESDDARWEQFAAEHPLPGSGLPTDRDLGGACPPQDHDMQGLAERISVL
Metric: residual activity

• CCC(=O)Nc1ccc2ncnc(Nc3cccc(Br)c3)c2c1 = 85.1%
• CCN(CC)CCNC(=O)c1c(C)[nH]c(/C=C2\C(=O)Nc3ccc(Cl)cc32)c1C = 11.9%
• COc1ccc(COc2ccc(Cc3cnc(N)nc3N)cc2OC)cc1 = 99.4%
• Nc1ncnc2[nH]nc(Nc3ccc(F)cc3)c12 = 81.3%
• CCCC(=O)Oc1ccc2[nH]c(C(=O)c3cc4ccccc4[nH]3)cc2c1 = 91.7%
• Cc1ccc(Nc2nccc(N(C)c3ccc4c(C)n(C)nc4c3)n2)cc1S(N)(=O)=O = 90.8%

* * *

The following molecules are shown together with reported residual activity values.
target: FYN (human) (UniProt P06241); experiment: radiometric filter-binding kinase assay, Kinase HotSpot; conditions: compound 0.5 µM; ATP 10 µM
Sequence (P06241 whole entry, looked up): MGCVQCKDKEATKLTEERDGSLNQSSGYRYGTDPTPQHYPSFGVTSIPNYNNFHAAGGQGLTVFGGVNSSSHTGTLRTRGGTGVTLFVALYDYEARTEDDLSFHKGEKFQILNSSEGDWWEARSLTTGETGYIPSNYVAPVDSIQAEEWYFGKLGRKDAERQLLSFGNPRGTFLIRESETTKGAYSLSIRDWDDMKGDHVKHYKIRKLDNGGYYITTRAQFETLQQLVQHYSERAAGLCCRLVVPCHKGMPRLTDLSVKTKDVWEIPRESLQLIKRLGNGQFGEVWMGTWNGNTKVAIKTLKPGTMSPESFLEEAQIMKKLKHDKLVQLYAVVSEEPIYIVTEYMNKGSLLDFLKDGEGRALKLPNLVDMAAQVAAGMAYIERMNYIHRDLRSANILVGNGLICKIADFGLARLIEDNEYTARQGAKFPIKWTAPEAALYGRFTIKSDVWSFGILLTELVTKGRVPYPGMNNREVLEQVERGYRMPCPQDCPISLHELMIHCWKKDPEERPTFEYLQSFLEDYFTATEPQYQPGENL
Metric: residual activity (%)

• CC[n+]1c(/C=C/N(C)c2ccccc2)n(-c2ccccc2)c2ccc(-c3nc4ccccc4s3)cc21 = 99.2
• O=c1cc(N2CCOCC2)oc2c1ccc1ccccc12 = 113
• CNC(=O)c1cc(Oc2ccc(NC(=O)Nc3ccc(Cl)c(C(F)(F)F)c3)cc2)ccn1 = 91.6
• Nc1ncnc2[nH]nc(Nc3ccc(F)cc3)c12 = 93
• Oc1cccc(-c2nc(N3CCOCC3)c3oc4ncccc4c3n2)c1 = 91.7
• COc1ccc2c(c[n+](C)c3c4cc5c(cc4ccc23)OCO5)c1OC = 101
• CC(C)N(CCC(=O)c1ccc2ccccc2c1)Cc1ccccc1 = 95.3
• O=C1NC(=O)C(c2cn(CCCn3ccnc3)c3ccccc23)=C1Nc1ccccc1 = 102
• N#C/C(=C(/N)Sc1ccc(N)cc1)c1ccccc1C(F)(F)F = 97.1
• O=C(Nc1cccc(Nc2nccc(Nc3cccc(C(F)(F)F)c3)n2)c1)C1CC1 = 54.1
• Nc1cccc(-c2cc3c(Oc4cccc(O)c4)ncnc3[nH]2)c1 = 7.92
• CCC(=O)Nc1ccc2ncnc(Nc3cccc(Br)c3)c2c1 = 107
• CCCC(=O)Oc1ccc2[nH]c(C(=O)c3cc4ccccc4[nH]3)cc2c1 = 102
• CCN(CC)CCNC(=O)c1c(C)[nH]c(/C=C2\C(=O)Nc3ccc(F)cc32)c1C = 71.3
• O=C1Nc2ccc(Cl)cc2/C1=C/c1cc(Cl)c(O)c(Cl)c1 = 73
• Nc1ncnc2c1c(-c1ccc(Oc3ccccc3)cc1)cn2C1CCCC1 = 3.51
• c1ccc(-c2n[nH]c3c2oc2ccccc23)cc1 = 104
• COc1ccc(COc2ccc(Cc3cnc(N)nc3N)cc2OC)cc1 = 102
• O=C1NC(=O)c2c1c1c3ccccc3n3c1c1c2c2ccccc2n1C1CCC3O1 = 59.9
• CCN(CC)C(=O)c1ccc(Nc2nc(OCC3CCCCC3)c3nc[nH]c3n2)cc1 = 62.6
• CCN(CC)CCNC(=O)c1c(C)[nH]c(/C=C2\C(=O)Nc3ccc(Cl)cc32)c1C = 28.4
• Nc1ccc2ncnc(NCCc3ccc(Oc4ccccc4)cc3)c2c1 = 103

* * *

molecular target: ROCK1 (human); experiment: radiometric filter-binding kinase assay, Kinase HotSpot; details: compound 0.5 µM; ATP 10 µM
Metric: residual activity (%)

- Cc1[nH]c(/C=C2\C(=O)Nc3ccc(S(=O)(=O)N(C)c4cccc(Cl)c4)cc32)c(C)c1C(=O)N1CCN(C)CC1: 84
- COc1ccc2c(c[n+](C)c3c4cc5c(cc4ccc23)OCO5)c1OC: 99.4
- Nc1ccc2ncnc(NCCc3ccc(Oc4ccccc4)cc3)c2c1: 94.4
- CC(=O)c1ccc(N2CCOCC2)cc1O: 92.9
- O=C(Nc1cccc(Nc2nccc(Nc3cccc(C(F)(F)F)c3)n2)c1)C1CC1: 101
- Cc1ccc(Nc2nccc(N(C)c3ccc4c(C)n(C)nc4c3)n2)cc1S(N)(=O)=O: 100
- CO[C@H]1CC2CC[C@@H](C)[C@@](O)(O2)C(=O)C(=O)N2CCCC[C@H]2C(=O)OC([C@H](C)C[C@@H]2CC[C@@H](O)[C@H](OC)C2)CC(=O)[C@H](C)/C=C(\C)[C@@H](O)[C@@H](OC)C(=O)[C@H](C)C[C@H](C)/C=C/C=C/C=C/1C (stereo partly drawn): 103
- CC#CC(=O)Nc1cc2c(Nc3ccc(F)c(Cl)c3)ncnc2cn1: 96.2

* * *

residual activity listing for selected compounds.
target: MAPK13 (human) (UniProt O15264); assay: radiometric filter-binding kinase assay, Kinase HotSpot; conditions: compound 0.5 µM; ATP 10 µM
Sequence (O15264 whole entry, looked up): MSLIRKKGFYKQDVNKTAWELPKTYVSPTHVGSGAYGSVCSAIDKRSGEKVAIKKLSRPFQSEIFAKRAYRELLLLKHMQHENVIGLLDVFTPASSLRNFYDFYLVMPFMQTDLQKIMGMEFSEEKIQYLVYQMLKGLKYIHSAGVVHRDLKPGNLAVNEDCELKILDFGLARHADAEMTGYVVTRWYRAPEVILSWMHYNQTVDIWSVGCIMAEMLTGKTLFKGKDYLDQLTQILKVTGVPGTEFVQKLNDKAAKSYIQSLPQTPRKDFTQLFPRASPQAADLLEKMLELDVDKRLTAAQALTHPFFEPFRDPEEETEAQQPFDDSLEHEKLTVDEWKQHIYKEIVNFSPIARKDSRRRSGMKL
Metric: residual activity (%)

• CC(=O)c1ccc(N2CCOCC2)cc1O = 104
• CCN(CC)CCNC(=O)c1c(C)[nH]c(/C=C2\C(=O)Nc3ccc(Cl)cc32)c1C = 104
• Cc1ccc(NC2=CC(=O)c3sc(C)nc3C2=O)cc1 = 105
• CCN(CC)CCNC(=O)c1c(C)[nH]c(/C=C2\C(=O)Nc3ccc(F)cc32)c1C = 92.4
• O=C1NC(=O)c2c1c1c3ccccc3n3c1c1c2c2ccccc2n1C1CCC3O1 = 114
• CNc1cc2c(Nc3cccc(Br)c3)ncnc2cn1 = 102
• CO[C@H]1CC2CC[C@@H](C)[C@@](O)(O2)C(=O)C(=O)N2CCCC[C@H]2C(=O)OC([C@H](C)C[C@@H]2CC[C@@H](O)[C@H](OC)C2)CC(=O)[C@H](C)/C=C(\C)[C@@H](O)[C@@H](OC)C(=O)[C@H](C)C[C@H](C)/C=C/C=C/C=C/1C (some centres undefined) = 121
• Nc1cccc(-c2cc3c(Oc4cccc(O)c4)ncnc3[nH]2)c1 = 104
• N#C/C(=C(/N)Sc1ccc(N)cc1)c1ccccc1C(F)(F)F = 104

* * *

molecular target: CHEK1 (human) (UniProt O14757); experiment: radiometric filter-binding kinase assay, Kinase HotSpot; conditions: compound 0.5 µM; ATP 10 µM
Sequence (O14757 whole entry, looked up): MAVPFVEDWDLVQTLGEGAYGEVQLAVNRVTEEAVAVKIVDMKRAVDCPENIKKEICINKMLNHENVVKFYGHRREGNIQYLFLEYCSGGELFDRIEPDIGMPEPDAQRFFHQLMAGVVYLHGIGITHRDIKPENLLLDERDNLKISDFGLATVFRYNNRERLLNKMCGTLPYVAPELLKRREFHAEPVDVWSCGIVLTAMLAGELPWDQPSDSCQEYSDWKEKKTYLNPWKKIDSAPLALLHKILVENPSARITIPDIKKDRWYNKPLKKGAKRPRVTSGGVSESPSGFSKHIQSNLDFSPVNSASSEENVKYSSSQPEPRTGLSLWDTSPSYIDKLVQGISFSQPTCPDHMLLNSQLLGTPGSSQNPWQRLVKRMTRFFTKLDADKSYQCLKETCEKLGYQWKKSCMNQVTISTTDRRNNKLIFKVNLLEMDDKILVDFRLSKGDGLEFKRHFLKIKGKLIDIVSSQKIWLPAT
Metric: residual activity (%)

- O=C1NC(=O)C(c2cn(CCCn3ccnc3)c3ccccc23)=C1Nc1ccccc1: 76.6
- c1ccc(-c2n[nH]cc2-c2ccnc3ccccc23)nc1: 99.7
- CCCC(=O)Oc1ccc2[nH]c(C(=O)c3cc4ccccc4[nH]3)cc2c1: 89.7
- N#CC(C#N)=C(N)/C(C#N)=C/c1ccc(O)cc1: 98.3
- O=C1NC(=O)c2c1c1c3ccccc3n3c1c1c2c2ccccc2n1C1CCC3O1: 3.63
- Cc1ccc(NC2=CC(=O)c3sc(C)nc3C2=O)cc1: 91.1
- CNc1cc2c(Nc3cccc(Br)c3)ncnc2cn1: 108
- O=C1NC(=O)/C(=C/c2ccc3c(c2)OC(F)(F)O3)S1: 101
- Cc1[nH]c(/C=C2\C(=O)Nc3ccc(S(=O)(=O)N(C)c4cccc(Cl)c4)cc32)c(C)c1C(=O)N1CCN(C)CC1: 89.7
- CC(C)N(CCC(=O)c1ccc2ccccc2c1)Cc1ccccc1: 106
- Nc1ncnc2[nH]nc(Nc3ccc(F)cc3)c12: 88
- CC#CC(=O)Nc1cc2c(Nc3ccc(F)c(Cl)c3)ncnc2cn1: 106
- CC[n+]1c(/C=C/N(C)c2ccccc2)n(-c2ccccc2)c2ccc(-c3nc4ccccc4s3)cc21: 103
- COc1cc2ncnc(Nc3cccc(Cl)c3)c2cc1OC: 93.7
- N#C/C(=C(/N)Sc1ccc(N)cc1)c1ccccc1C(F)(F)F: 97.5
- Nc1ccc2ncnc(NCCc3ccc(Oc4ccccc4)cc3)c2c1: 101
- CCN(CC)CCNC(=O)c1c(C)[nH]c(/C=C2\C(=O)Nc3ccc(Cl)cc32)c1C: 15.1
- CCOC(=O)c1c(C)[nH]c(/C=C2\C(=O)Nc3ccccc32)c1C: 89.4
- CC(=O)c1ccc(N2CCOCC2)cc1O: 103
- COc1ccc2c(c[n+](C)c3c4cc5c(cc4ccc23)OCO5)c1OC: 94.4
- CCN(CC)C(=O)c1ccc(Nc2nc(OCC3CCCCC3)c3nc[nH]c3n2)cc1: 66.1
- O=C(Nc1cccc(Nc2nccc(Nc3cccc(C(F)(F)F)c3)n2)c1)C1CC1: 96.6
